system: R275C/beta4; test: modulators of BK channel variants, profiling panel, selectivity assay, cell-based, U2OS BacMam, thallium flux, beta subunits (AID 1259406); conditions: at 30 µM;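 note: initial slope of Thallos dye fluorescence rise after thallium is added; log ratio against the mean of 0.3% DMSO vehicle wells on the same plate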
Label fulfilled when log fold change Tl+ flux is strictly below 0.01; at or above that, label not fulfilled.

// below: answered compounds
>  <Compound>
CCOC(=O)C1CCCN(C(=O)Nc2c(-c3ccccc3)noc2C)C1 (stereo not given)

>  <Class Name>
fulfilled

$$$$
>  <Compound>
CSc1nc(C=Nc2cccc(Cl)c2)c(O)n1Cc1cccc(Cl)c1

>  <Class Name>
not fulfilled

$$$$
>  <Compound>
O=S(=O)(CCN1CCN(Cc2ccccc2)CC1)c1ccc(F)cc1

>  <Class Name>
not fulfilled

$$$$
>  <Compound>
CN1[C@@H]2CCC[C@H]1CC(NC(=O)c1nn(C)c3ccccc13)C2 (stereo not given in full)

>  <Class Name>
not fulfilled

$$$$

-- ask Strictly below 0.01 in log fold change Tl+ flux? CO[C@H]1C=CO[C@@]2(C)Oc3c(C)c(O)c4c(O)c(c5c(c4c3C2=O)NC2(CCN(CC(C)C)CC2)N=5)=NC(=O)C(C)=CC=C[C@H](C)[C@H](O)[C@@H](C)[C@@H](O)[C@@H](C)[C@H](OC(C)=O)[C@@H]1C
-- reply not fulfilled

---

experiment: antimalarial activity against Dd2 strain (AID 2302);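 note: 0% = DMSO untreated growth and 100% = chloroquine plus artemisinin killed control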; details: P. falciparum Dd2 in RBCs, LDH growth readout, 72 h; at 2 µM; active compounds read high
The following compounds are shown together with reported growth inhibition values.
Use % as the unit, but write only the number.

>  <Chemical Smiles>
COc1c(CN2CCCC2)cccc1-c1cc2c(-c3ccc(C(=O)O)c(C(C)C)c3)ccnc2[nH]1

>  <Test Value>
98

$$$$
>  <Chemical Smiles>
Cc1cccc2[nH]c(-c3cc(-c4cn[nH]c4)cnc3N)nc12

>  <Test Value>
93

$$$$

Consider the additional compound presented here.
Form field growth inhibition, entry c1ccc(Oc2ccc(Nc3ccnc4cc(-c5ccc(CNCCN6CCOCC6)o5)ccc34)cc2)cc1 : 99

---

experiment: sensitizers of A549 cells to miR-34 induction, primary screen, imaging, A549 dox-inducible miR-34, nuclei and caspase counts (AID 1347080); conditions: A549 miR-34 inducible, Hoechst nuclei count, 48 h; active compounds read low; cell number ratio, induced over uninduced
Below, each entry is listed alongside its reported fold change.
Number only, no unit.

See these solved cases before continuing.
>  <Molecule>
CC(C)C[C@@H](NC(=O)OCC1c2ccccc2-c2ccccc21)C(=O)O

>  <fold change>
0.883

$$$$
>  <Molecule>
O=c1ncc(F)c[nH]1

>  <fold change>
0.892

$$$$
>  <Molecule>
COCC1=C(C(=O)OC(C)OC(=O)OC(C)C)N2C(=O)[C@@H](NC(=O)/C(=N/OC)c3csc(N)n3)[C@H]2SC1 (stereo partly specified)

>  <fold change>
0.924

$$$$

OC[C@H]1O[C@H](O[C@]2(CCl)O[C@H](CCl)[C@@H](O)[C@@H]2O)[C@H](O)[C@@H](O)[C@H]1Cl has a reported fold change of 0.909

Lab note: CC(=O)Nc1ccc(OC(C)=O)cc1 gave fold change of 0.883

CCCCCCCCCCC[C@@H](C[C@H]1OC(=O)[C@H]1CCCCCC)OC(=O)[C@@H](CC(C)C)NC=O has a reported fold change of 0.887

Recorded fold change (molecule C#C[C@]1(O)CC[C@H]2[C@@H]3CCC4=Cc5oncc5CC4(C)[C@H]3CCC21C (stereo partly specified) ): 0.894

Consider CC(CCC(=O)O)[C@H]1CCC2C3C(=O)C[C@@H]4CC(=O)CC[C@]4(C)C3CC(=O)[C@@]21C (stereo partly specified) . Its measured fold change is 0.923

The value of fold change measured for the molecule O=C(O)CCCN1CCN([C@H](c2ccccc2)c2ccc(Cl)cc2)CC1 turned out to be 0.876

---

test: ovarian cancer cell viability with rucaparib, profiling panel, oncology-focused library, rucaparib conditional (AID 1508598); conditions: patient-derived ovarian cancer cells, CellTiter-Glo viability, 144 h; at 0.0781 µM; OCI-P5x cells; without rucaparib
Calls of active or inactive are those of the source.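 The calls were made as follows: active = normalized viability below 100% at a tested concentration; inactive = the rest.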
Response enum: active, inactive

>  <Chemical Smiles>
Cc1ccc(S(=O)(=O)/C=C/C#N)cc1

>  <Class Name>
inactive

$$$$

-- ask Field: outcome | Entry: CN(C)CCCn1cc(C2=C(c3c[nH]c4ccccc34)C(=O)NC2=O)c2ccccc21
-- reply inactive

-- ask Which outcome was assigned to O=c1cc(N2CCOCC2)oc2c(-c3ccccc3)cccc12 in this test?
-- reply active

-- ask Entry Cn1cc(C2=C(c3ccc(Cl)cc3Cl)C(=O)NC2=O)c2ccccc21 : call = ?
-- reply active

---

assay: viability rescue of complex I mutant cybrids, primary screen, cell-based, galactose medium, ATP luminescence (AID 1645843); settings: complex I mutant cybrid cells, 72 h, active compounds read high;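 note: positive z means more ATP and so rescue of galactose-driven cybrid death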
Measured Parameter: z-score
Answer with a bare number; do not write a unit.

// solved cases for z-score follow
>  <Molecule>
CC(Cc1ccc(O)c(O)c1)(NN)C(=O)O (configuration not stated)

>  <z-score>
-1.27

$$$$
>  <Molecule>
CCCN1CC(CSC)CC2c3cccc4[nH]cc(c34)CC21 (configuration not stated)

>  <z-score>
-0.235

$$$$
>  <Molecule>
COc1ccc(CCCOC(Cn2ccnc2)c2ccc(OC)cc2)cc1 (configuration not stated)

>  <z-score>
-0.775

$$$$
>  <Molecule>
CC(=O)CCCCn1cnc2c1c(=O)n(C)c(=O)n2C

>  <z-score>
0.63

$$$$

Data point: C#C[C@]1(O)CCC2C3CCc4cc(O)ccc4C3CC[C@@]21C (some centres not stated) ; z-score = -0.545

Measured z-score of CC(C)C[C@@H](C(=O)N[C@H](C(=O)OC1CCCC1)c1ccccc1)[C@H](O)C(=O)NO : 0.875

Please fill in: z-score reported for N#C/C(=C(/N)Sc1ccc(N)cc1)c1ccccc1C(F)(F)F = -0.775

For this molecule ( N[C@H]1CONC1=O ), measured z-score is -0.18

z-score for CC(=O)OCC(=O)C12OC3(CCCC3)OC1CC1C3CCC4=CC(=O)C=CC4(C)C3(F)C(O)CC12C (configuration not stated) is -1.46

The reported z-score of the molecule Cc1[nH]c(/C=C2\C(=O)Nc3ccccc32)c(C)c1CCC(=O)O was 0.51

// field: z-score; key: C[C@@H](c1ncncc1F)[C@](O)(Cn1cncn1)c1ccc(F)cc1F ; value = 0.365

In plain terms, COc1ccc(Nc2nccc(NCCO)n2)cc1 has a documented z-score of -0.315

For CN(C)S(=O)(=O)c1ccc2c(c1)/C(=C\CCN1CCNCC1)c1ccccc1S2 the molecule record lists z-score as -0.06

z-score in this record for NC(Cc1cc(I)c(Oc2ccc(O)c(I)c2)c(I)c1)C(=O)O (configuration not stated) : -1.5

---

target: Single-stranded DNA-binding protein (Escherichia coli (strain K12)) (UniProt P0AGE0); assay: E. coli SSB displacement from DNA, counter-screen for HCV NS3 helicase inhibitor project, biochemical, fluorescence polarization, NIH Clinical Collection (AID 743271); details: active compounds read high, concentration not given here
Catalogue of inhibition values
Express the result in % but write the number alone.

Consider the reported inhibition for these compounds:
>  <Compound>
Cc1cc2c(s1)Nc1ccccc1N=C2N1CCN(C)CC1

>  <Target Of Assay>
Single-stranded DNA-binding protein (Escherichia coli (strain K12)) (UniProt P0AGE0)

>  <Units>
%

>  <inhibition>
-3.18

$$$$
>  <Compound>
CC1(C)C[C@@H]1C(=O)N/C(=C\CCCCSC[C@H](N)C(=O)O)C(=O)O

>  <Target Of Assay>
Single-stranded DNA-binding protein (Escherichia coli (strain K12)) (UniProt P0AGE0)

>  <Units>
%

>  <inhibition>
-0.1

$$$$
>  <Compound>
CC[C@@H]1C(=O)OC[C@@H]1Cc1cncn1C

>  <Target Of Assay>
Single-stranded DNA-binding protein (Escherichia coli (strain K12)) (UniProt P0AGE0)

>  <Units>
%

>  <inhibition>
1.44

$$$$
>  <Compound>
CO[C@H]1C=CO[C@@]2(C)Oc3c(C)c(O)c4c(O)c(c5c(nc6cc(C)ccn65)c4c3C2=O)NC(=O)C(C)=CC=C[C@H](C)[C@H](O)[C@@H](C)[C@@H](O)[C@@H](C)[C@H](OC(C)=O)[C@@H]1C

>  <Target Of Assay>
Single-stranded DNA-binding protein (Escherichia coli (strain K12)) (UniProt P0AGE0)

>  <Units>
%

>  <inhibition>
1.44

$$$$
>  <Compound>
CSc1nc2cc(Oc3cccc(Cl)c3Cl)c(Cl)cc2[nH]1

>  <Target Of Assay>
Single-stranded DNA-binding protein (Escherichia coli (strain K12)) (UniProt P0AGE0)

>  <Units>
%

>  <inhibition>
3.75

$$$$

For reference, reported inhibition for Cc1cnc(C(=O)NCCc2ccc(S(=O)(=O)NC(=O)NC3CCCCC3)cc2)cn1 stands at -2

// inhibition value for C[C@]12C=CC(=O)C=C1CC[C@@H]1[C@@H]2[C@@H](O)C[C@@]2(C)[C@H]1CC[C@]2(O)C(=O)COC(=O)CCC(=O)O : 4.52

The compound O=C(OC1C[C@@H]2CC3C[C@H](C1)N2CC3=O)c1c[nH]c2ccccc12 (some centres not stated) showed inhibition equal to -2.76

Item: CCOC(=O)[C@@H](CCc1ccccc1)N[C@@H](C)C(=O)N1CCC[C@H]1C(=O)O | inhibition: -0.48

Just so you know, measured inhibition for CC(C)(S)C(N)C(=O)O (configuration not stated) came out at -2.76

The recorded inhibition for entry COc1ccc(C[C@H](C)NC[C@@H](O)c2ccc(O)c(NC=O)c2)cc1 equals -0.1

Notebook: O=C(NC(CO)C(O)c1ccc([N+](=O)[O-])cc1)C(Cl)Cl (configuration not stated) , inhibition read as 4.1
